Cited source for all entries: the Human Domainome abundance scans (Beltran et al. 2025)

B1: Far upstream element-binding protein 1, residues 98 to 169; numbered along this chain, Q96AE4 (parent)
chain: RSVMTEEYKVPDGMVGFIIGRGGEQISRIQQESGCKIQIAPDSGGLPERSCMLTGTPESVQSAKRLLDQIVE

variants of: B1; assay: abundance fitness (aPCA) (normalised: wild type 0, dead -1); higher = more abundant; growth selection in yeast, the domain comes from the species named; details: Homo sapiens
Kind request: treat -0.09 as inclusive, so abundance fitness at -0.09 or higher is label 1, anything lower is label 0.

{"columns": ["entry-sequence", "answer-label"],
 "data": [
  ["RSVMTEEYKVPDGMVGFIIGRGGEQISRIQQESGCKIQIAPDSGGLPERSCMLTGTPESVQSAKRLLDIIVE [Q69I]", "label 1"],
  ["RSAMTEEYKVPDGMVGFIIGRGGEQISRIQQESGCKIQIAPDSGGLPERSCMLTGTPESVQSAKRLLDQIVE [V3A]", "label 1"],
  ["RSVMTEEYKVEDGMVGFIIGRGGEQISRIQQESGCKIQIAPDSGGLPERSCMLTGTPESVQSAKRLLDQIVE [P11E]", "label 1"],
  ["RSVMTEEYKVPDGMVGFIIGRGGEQISRIQQESGCKIQIAPDSGGLPERSCMLTGTPESEQSAKRLLDQIVE [V60E]", "label 0"],
  ["RSVMTEEYKVPDGMVGFIIGRGGEQISRIQQESGCKIQIAYDSGGLPERSCMLTGTPESVQSAKRLLDQIVE [P41Y]", "label 0"]
]}

Data request: Confirm if abundance fitness reported for the variant RSVMTEEYKVPDGMVGFIIGRGGEQISRIQQESGCKIQIAPDSGGLPERSCMLTGTPESVQSAKRLLDQRVE [I70R] is -0.09 or above.
Data returned: label 1

Data request: Confirm if abundance fitness reported for the variant RSVMTEEYKVPDGMVGFIIGRGGEQDSRIQQESGCKIQIAPDSGGLPERSCMLTGTPESVQSAKRLLDQIVE [I26D] is -0.09 or above.
Data returned: label 0

Data request: Confirm if abundance fitness reported for the variant RSVMTEEYKVPDGMVGFIIGRGGEQISRIQQESGCKIQIAPDSGGLPERSCMLTGLPESVQSAKRLLDQIVE [T56L] is -0.09 or above.
Data returned: label 1

Data request: Confirm if abundance fitness reported for the variant RSVMTEEYKVPDGMVGFIIGRGGEQISRIQQESGCKIEIAPDSGGLPERSCMLTGTPESVQSAKRLLDQIVE [Q38E] is -0.09 or above.
Data returned: label 1

Data request: Confirm if abundance fitness reported for the variant RSVMTEEYKVPDGMVGFIIGRGGEQISRIQQESGCKIQIAPDSGGLPERSCMLCGTPESVQSAKRLLDQIVE [T54C] is -0.09 or above.
Data returned: label 1

Data request: Confirm if abundance fitness reported for the variant RSVMTEEYKVPDGMVGFIIGRGGEQISRIQQESGCKIQIAPDSGGLPERSCMLTGTPNSVQSAKRLLDQIVE [E58N] is -0.09 or above.
Data returned: label 0

Data request: Confirm if abundance fitness reported for the variant RSVMTEEYKVPDGMVGFIIGRGTEQISRIQQESGCKIQIAPDSGGLPERSCMLTGTPESVQSAKRLLDQIVE [G23T] is -0.09 or above.
Data returned: label 0
